assay: in vitro; settings: human, kb cells
Structures can show the parent of a compound that is named as a salt.
endpoint: MCC at 72 h (µg/mL)
Give bare numbers, in µg/mL.

These solved cases illustrate the format of a correct answer.
molecule | output unit | MCC at 72 h
CCOCC(=O)NC12CCCC3CC(CCC31)C2 (centres unmarked) | µg/mL | 25
CN(C)CCOCC(=O)NC12CCCC3CC(CCC31)C2 (centres unmarked) [hydrochloride] | µg/mL | 250
CCCCCOCC(=O)NC12CCCC3CC(CCC31)C2 (centres unmarked) | µg/mL | 5

We now examine a further molecule.
Query :: In one line, give reported MCC at 72 h of the entry CCCCCCCCCCCOCC(=O)NC12CCCC3CC(CCC31)C2 (centres unmarked) .
Result :: 10
